System: DeltatarO mutant
Experiment: S. aureus survival, RN4220 and DeltatarO strains – OD600, teichoic acid synthesis inhibitors, primary screen (AID 463173)
Details: S. aureus RN4220 wild type/DeltatarO growth, OD600, 18 h, stronger effect = lower value, screened at 18.75 µg/mL (by protocol)
Among all 52,000 compounds or so, about 4,300 (8.3%) were called active. This excerpt belongs to a sample that is enriched for actives.
Label True when survival is strictly below 80%; otherwise label False.

query: Please indicate whether the reported survival of COc1cc(OC)c(NC(=O)Nc2sc3nc4n(c(=O)c3c2C)CCC(C)CC4)cc1Cl (stereo not given) is strictly below 80%.
result: False

query: Moving on to O=C(COCc1cc(-c2cccs2)on1)NCc1ccc(Cl)cc1
result: True

query: Moving on to C=CS(=O)(=O)c1ccc(Oc2ccc(S(=O)(=O)C=C)cc2)cc1
result: False

query: Moving on to CCOC(=O)c1ccc(CN(Cc2ccccc2C)S(=O)(=O)c2ccc(F)c(C(=O)Nc3cccc(OC)c3)c2)cc1
result: True

query: Moving on to COc1ccccc1CNS(=O)(=O)c1ccc(-c2cc(C(F)(F)F)on2)s1
result: False

###

Test system: DeltatarO mutant
Test: S. aureus survival, RN4220 and DeltatarO strains – OD600, teichoic acid synthesis inhibitors, primary screen (AID 463173)
Conditions: S. aureus RN4220 wild type/DeltatarO growth, OD600, 18 h, screened at 18.75 µg/mL (by protocol)
Screen size: about 52,000 compounds; about 4,300 (8.3%) were called active. No stated cut-off is given here; in the data, active means survival mostly below about 52% (no sharp cut-off); inactive means mostly above about 56%. What follows is part of a selection rich in actives, with near analogues and random picks from the rest.
The reply should name one outcome from T = active, F = inactive

query: Called result for Cc1ccccc1NS(=O)(=O)c1ccc(Br)s1
result: F

query: Moving on to CC(C)NC(=O)CCSc1ccc(Cl)cc1
result: F

query: Moving on to COc1ccc(OC)c(NS(=O)(=O)c2ccc3c(c2)C(C)(C)C(=O)N3C)c1
result: T

query: Moving on to O=S(=O)(Nc1ccc(F)cc1F)c1ccc(Br)s1
result: T

query: Moving on to O=S(=O)(Nc1ccc(F)c(Cl)c1)c1ccc(Br)s1
result: T

query: Moving on to CC(C)Oc1ccc(CNS(=O)(=O)c2ccc3c(c2)C(C)(C)C(=O)N3C)cc1
result: F

query: Moving on to COCCNc1nc2c(c(=O)n(C)c(=O)n2C)n1Cc1c(F)cccc1Cl
result: F

query: Moving on to Cc1ccc(-c2nc3cc(Cl)ccc3o2)cc1NC(=O)c1cc([N+](=O)[O-])ccc1N1CCOCC1
result: F

query: Moving on to N#Cc1cc(-c2ccc(Cl)cc2)no1
result: F

query: Moving on to O=C(Nc1ccc(Cl)c(-c2nc3cc(Cl)ccc3o2)c1)c1cc([N+](=O)[O-])ccc1N1CCOCC1
result: F

query: Moving on to O=C(CCCc1ccccc1)NC1CC(=O)N(c2cccc(F)c2)C1 (configuration not stated)
result: F

query: Moving on to COc1ccc2oc(-c3cccc(NC(=O)c4cc([N+](=O)[O-])ccc4N4CCOCC4)c3)nc2c1
result: F

query: Moving on to CCc1ccccc1NC(=O)Nc1c(C)n(C)n(-c2ccccc2)c1=O
result: F

query: Moving on to COc1ccc(-c2nc3ccccc3o2)cc1NC(=O)c1cc([N+](=O)[O-])ccc1N1CCOCC1
result: T

query: Moving on to O=C(Nc1ccc(Cl)cc1)C1CCC(CNS(=O)(=O)c2ccc(Br)s2)CC1 (configuration not stated)
result: F

query: Moving on to CC(C(=O)O)N1CCCCC1 (configuration not stated)
result: F

query: Moving on to CC1CCN(c2oc(-c3cccs3)nc2S(=O)(=O)c2ccccc2)CC1
result: T

###

Tested on: DeltatarO mutant
Test: S. aureus survival, RN4220 and DeltatarO strains – OD600, teichoic acid synthesis inhibitors, primary screen (AID 463173)
Details: S. aureus RN4220 wild type/DeltatarO growth, OD600, 18 h, stronger effect = lower value, screened at 18.75 µg/mL (by protocol)
Screen size: about 52,000 compounds; about 4,300 (8.3%) were called active. What follows is part of a selection rich in actives, with near analogues and random picks from the rest.
EXPERIMENTAL_READOUT: survival (%)
Write down the numeric answer in % and omit the unit.

query: Kindly state the measured survival obtained for Cc1ccc(CNC(=O)Nc2cc(C(=O)NCc3ccc(C(C)C)cc3)ccc2N2CCCC2)cc1 with DeltatarO mutant.
result: 79

query: Moving on to COc1ccc(S(=O)(=O)Nc2cc3c(cc2NCc2ccccc2)n(C)c(=O)n3C)cc1
result: 69

query: Moving on to COc1cc(OC)c(NC(=O)N2CCN3CCCCC3C2)cc1Cl (stereo not drawn)
result: 75

###

Tested on: DeltatarO mutant
Assay: S. aureus survival, RN4220 and DeltatarO strains – OD600, teichoic acid synthesis inhibitors, primary screen (AID 463173)
Details: S. aureus RN4220 wild type/DeltatarO growth, OD600, 18 h, stronger effect = lower value, screened at 18.75 µg/mL (by protocol)
The campaign covered roughly 52,000 compounds. About 4,300 (8.3%) were called active. The sample holds actives, similar compounds and a random draw of the others, so the mix is not that of the screen.
EXPERIMENTAL_READOUT: survival (%)
Write down the numeric answer in % and omit the unit.

query: State the recorded survival for this entry: COc1ccc(C)cc1NC(=O)N(Cc1ccc(C)o1)C1CCN(C(C)=O)CC1
result: 8

query: Moving on to CC(=O)N1CCC(N(Cc2ccc(C)o2)C(=O)Nc2ccc(C)cc2)CC1
result: 96

query: Moving on to Cc1ccc(NC(=O)Cn2ncn3c(cc4ccccc43)c2=O)cc1F
result: 84

###

System: DeltatarO mutant
Test: S. aureus survival, RN4220 and DeltatarO strains – OD600, teichoic acid synthesis inhibitors, primary screen (AID 463173)
Details: S. aureus RN4220 wild type/DeltatarO growth, OD600, 18 h, stronger effect = lower value, screened at 18.75 µg/mL (by protocol)
Among all 52,000 compounds or so, about 4,300 (8.3%) were called active. This is one part of a sample in which actives are shown more often than they occur.
Label label 1 when survival is strictly below 80%; otherwise label label 0.

query: Please indicate whether the reported survival of O=C(Nc1cccc(-c2nc3ccccc3[nH]2)c1)c1ccccc1F is strictly below 80%.
result: label 1

query: Moving on to Cc1cc(C)c2c(=O)c3c(oc2c1)C(=O)N(CCCOC(C)C)C3c1ccccc1F (configuration not stated)
result: label 1

query: Moving on to CCC(=O)Nc1ccc(-c2nc3ccc(NC(=O)CC)cc3[nH]2)cc1
result: label 1

query: Moving on to Cc1ccccc1CS(=O)(=O)Cc1ccc(C(=O)NCCc2ccccc2)o1
result: label 0

query: Moving on to Cc1nn(C(=O)COc2ccc(Cl)cc2)c(C)c1Sc1ccccc1
result: label 0

query: Moving on to COc1ccc(OC)c(CNC(=O)c2ccc(Sc3ccc(Cl)cc3)c(NC(C)=O)c2)c1
result: label 0

query: Moving on to CC(=O)Nc1cc(NC(C)=O)cc(-c2nc3ccccc3[nH]2)c1
result: label 0

query: Moving on to O=C(Nc1ccc(F)cc1C(F)(F)F)C1CCN(c2ncccn2)CC1
result: label 1

query: Moving on to CC(C)(C)C(=O)Nc1ccc(-c2nc3ccc(NC(=O)C(C)(C)C)cc3[nH]2)cc1
result: label 0

query: Moving on to O=C(Nc1cccc(-c2nc3ccccc3[nH]2)c1)c1c(F)cccc1F
result: label 1

query: Moving on to O=C(NCc1nc2ccccc2[nH]1)c1c(F)cccc1F
result: label 1

query: Moving on to Cc1ccc(Sc2c(C)nn(C(=O)c3ccc(Cl)cc3)c2C)cc1
result: label 1

query: Moving on to Cc1ccc(C(CC(=O)Nc2ccc(F)c(Cl)c2)N2Cc3ccccc3C2=O)cc1 (configuration not stated)
result: label 0

query: Moving on to COc1cc(C2c3c(-c4c(C)cc(C)cc4O)n[nH]c3C(=O)N2CCCOC(C)C)cc(OC)c1OC (configuration not stated)
result: label 0

query: Moving on to Cc1nn(C(=O)c2ccccc2)c(C)c1Sc1ccc(Cl)cc1
result: label 1

query: Moving on to O=C(Oc1cccc(-n2cnnn2)c1)C1CCCCC1
result: label 0

###

System: DeltatarO mutant
Experiment: S. aureus survival, RN4220 and DeltatarO strains – OD600, teichoic acid synthesis inhibitors, primary screen (AID 463173)
Conditions: S. aureus RN4220 wild type/DeltatarO growth, OD600, 18 h, screened at 18.75 µg/mL (by protocol)
Screen size: about 52,000 compounds; about 4,300 (8.3%) were called active. No stated cut-off is given here; in the data, active means survival mostly below about 52% (no sharp cut-off); inactive means mostly above about 56%. What follows is part of a selection rich in actives, with near analogues and random picks from the rest.
The reply should name one outcome from Yes for active, No for inactive

query: Called result for O=C(N/N=C/c1ccc(-c2ccc(Cl)c(C(=O)O)c2)o1)c1ccncc1
result: No

query: Moving on to CCn1c(C(=O)NCc2ccc(OC(C)C)cc2)cc2oc3ccccc3c21
result: Yes

query: Moving on to CCOC(=O)c1ccc(NC(=O)CSc2nc3ccccc3c(=O)n2CCC(=O)NC2CCCCC2)cc1
result: No

query: Moving on to CCn1c(C(=O)NCc2ccc(F)cc2)cc2oc3ccccc3c21
result: No

query: Moving on to COc1cc(C(Nc2ccc(S(=O)(=O)N3CCCC3)cc2)C(=O)NC(C)(C)C)cc(OC)c1OC (stereo unspecified)
result: No

query: Moving on to C=CCNc1nc(C(C)C)nc2c1nnn2Cc1ccccc1
result: No
